Measured target: Glutamate receptor ionotropic, AMPA (Rattus norvegicus, UniProt P19490+P19491+P19492+P19493)
pIC50: −log10 of the molar value.
Assign criterion met to entries whose pIC50 meets or exceeds 6; assign criterion not met to the rest.

| Molecule | Group |
| --- | --- |
| CN1CCc2c([N+](=O)[O-])cc3[nH]c(=O)c(=O)[nH]c3c2C1 | criterion met |
| CN1CCc2c(c(Br)c([N+](=O)[O-])c3[nH]c(=O)c(=O)[nH]c23)C1 | criterion not met |
| CCC(C)CN1CCc2c([N+](=O)[O-])cc3[nH]c(=O)c(=O)[nH]c3c2C1 (stereo not given) | criterion met |

stdin: Hi, just wondering whether "CCN1CCc2c(ccc3nc(O)c(O)nc23)C1" shows pIC50 of 6 or higher.
stdout: criterion not met

----------
Measured target: Glutamate receptor ionotropic, AMPA (Rattus norvegicus, UniProt P19490+P19491+P19492+P19493)
pIC50 listing for selected molecules.
Recall that pIC50 is obtained by taking minus log10 of the concentration measured in molar.

Study these solved cases before continuing.
| Molecule | pIC50 |
| --- | --- |
| CCN1CCc2c(Br)cc3[nH]c(=O)c(=O)[nH]c3c2C1 | 6.13 |
| CCC(C)N1CCc2c([N+](=O)[O-])cc3[nH]c(=O)c(=O)[nH]c3c2C1 (stereo unspecified) | 6.55 |

The molecule listed as "Oc1nc2ccc3c(c2nc1O)CCCN3" shows pIC50 equal to 4.62

----------
Items are presented alongside their recorded IC50.
Measured target: Glutamate receptor ionotropic, NMDA 1 (Rattus norvegicus, UniProt P35439)
Test protocol: Affinity for N-methyl-D-aspartate glutamate receptor 1 in rat brain synaptic membranes, using [3H]glycine as radioligand

Previously resolved entries follow.
| Compound | IC50 |
| --- | --- |
| CN1CCc2ccc3[nH]c(=O)c(=O)[nH]c3c2C1 | > 100 µM |
| CCC(C)N1CCc2c(Br)cc3nc(O)c(O)nc3c2C1 (stereo not given) | > 10 µM |
| CCC(C)CN1CCc2c(ccc3nc(O)c(O)nc23)C1 (stereo not given) | > 100 µM |
| CC(=O)Nc1cc2[nH]c(=O)c(=O)[nH]c2c2c1CCN(C)C2 | > 100 µM |

As a next step, examine the compound that follows.
Param item: "CCCCCCCN1CCc2c(c([N+](=O)[O-])cc3[nH]c(=O)c(=O)[nH]c23)C1" ; param system: Glutamate receptor ionotropic, NMDA 1 (Rattus norvegicus, UniProt P35439); output IC50: > 10 µM

----------
Measured target: UniProt P35439
Test protocol: Affinity for N-methyl-D-aspartate glutamate receptor 1 in rat brain synaptic membranes, using [3H]glycine as radioligand
Listed here are compounds together with their documented IC50.

| Compound | Reported metric | Result |
| --- | --- | --- |
| CN1CCc2c(ccc3[nH]c(=O)c(=O)[nH]c23)C1 | IC50 | > 100 µM |
| CCCN1CCc2c(c(Br)cc3nc(O)c(O)nc23)C1 | IC50 | > 10 µM |
| CCC(C)CN1CCc2c(Br)cc3nc(O)c(O)nc3c2C1 (configuration not stated) | IC50 | > 100 µM |
| Cc1cc2[nH]c(=O)c(=O)[nH]c2c2c1CN(C)CC2 | IC50 | > 10 µM |

# compound "CCCCCCCN1CCc2c(ccc3[nH]c(=O)c(=O)[nH]c23)C1" ; its IC50 = > 100 µM

Per the records, this compound ( "CC(C)CCN1CCc2c(Br)cc3nc(O)c(O)nc3c2C1" ) has IC50 equal to > 10 µM

Quick note, IC50 for CCC(C)CN1CCc2c(c([N+](=O)[O-])cc3[nH]c(=O)c(=O)[nH]c23)C1 (configuration not stated) landed at > 100 µM

----------
Measured target: Glutamate receptor ionotropic, kainate
Test protocol: Binding affinity for the ionotropic glutamate receptor kainate in rat brain synaptic membranes using [3H]kainate as radioligand
Type: cell membranes
pIC50: −log10 of the molar value.
Recorded pIC50 split into classes 0: < 5; 1: ≥ 5 and < 6; 2: ≥ 6

| Molecule | Measured target | Group |
| --- | --- | --- |
| CN1CCc2c(c(Br)c([N+](=O)[O-])c3[nH]c(=O)c(=O)[nH]c23)C1 | Glutamate receptor ionotropic, kainate | 1 |
| CCCN1CCc2c(c([N+](=O)[O-])cc3[nH]c(=O)c(=O)[nH]c23)C1 | Glutamate receptor ionotropic, kainate | 1 |
| CN1CCc2c(c([N+](=O)[O-])cc3[nH]c(=O)c(=O)[nH]c23)C1 | Glutamate receptor ionotropic, kainate | 2 |

stdin: # bin lookup: classify "CCN1CCc2c([N+](=O)[O-])cc3[nH]c(=O)c(=O)[nH]c3c2C1" by its pIC50
stdout: 2

stdin: For the record CCC(C)CN1CCc2c(c([N+](=O)[O-])cc3[nH]c(=O)c(=O)[nH]c23)C1 (stereo unspecified) , report the class its pIC50 corresponds to.
stdout: 0

stdin: Please report the category associated with "CCN1CCc2ccc3[nH]c(=O)c(=O)[nH]c3c2C1" , nothing else.
stdout: 0

stdin: Category of "CN1CCc2c(c(Br)cc3[nH]c(=O)c(=O)[nH]c23)C1" :
stdout: 1

stdin: Assign a bin to "CCN1CCc2c(c([N+](=O)[O-])cc3nc(O)c(O)nc23)C1"
stdout: 2

stdin: Just checking, what class would you give "CC(=O)Nc1cc2[nH]c(=O)c(=O)[nH]c2c2c1CCN(C)C2" here?
stdout: 0

stdin: Record "CN1CCc2c(Br)cc3[nH]c(=O)c(=O)[nH]c3c2C1" — which class?
stdout: 1

----------
Measured target: Glutamate receptor ionotropic, AMPA (Rattus norvegicus, UniProt P19490+P19491+P19492+P19493)
Reported metric: pIC50
Notebook: values listed as pIC50 are -log10 of the concentration (mol/L).

Some entries whose results are on file:
| Mol | pIC50 |
| --- | --- |
| CN1CCc2ccc3[nH]c(=O)c(=O)[nH]c3c2C1 | 4.74 |
| CCN1CCc2c(c([N+](=O)[O-])cc3nc(O)c(O)nc23)C1 | 6.27 |
| CN1CCc2c(C#N)cc3[nH]c(=O)c(=O)[nH]c3c2C1 | 5.87 |
| CN1CCc2c(N)cc3[nH]c(=O)c(=O)[nH]c3c2C1 | 4.00 |

Please examine the following record next.
Entry under test: "CCN1CCc2c([N+](=O)[O-])cc3[nH]c(=O)c(=O)[nH]c3c2C1" . Its pIC50 was 6.78

----------
Measured target: Glutamate receptor ionotropic, AMPA (Rattus norvegicus, UniProt P19490+P19491+P19492+P19493)
pIC50: −log10 of the molar value.
Measured pIC50 values are reported for all entries that follow.

| Compound | pIC50 |
| --- | --- |
| CC(=O)Nc1cc2[nH]c(=O)c(=O)[nH]c2c2c1CCN(C)C2 | < 4.00 |
| CCC(C)CN1CCc2c(Br)cc3nc(O)c(O)nc3c2C1 (stereo not drawn) | < 4.00 |

// switching to the query compound
Data point: CCC(C)CN1CCc2ccc3nc(O)c(O)nc3c2C1 (stereo not drawn) ; pIC50 = < 4.00

Data credit: ChEMBL document CHEMBL1128553
